MEASURED_ENDPOINT: melting point

See these solved cases before continuing.
INSERT INTO measurements (molecule, measured_endpoint, result) VALUES
  ('c1cc(CSSc2nc3ccccc3s2)cc(CSSc2nc3ccccc3s2)c1', 'melting point', '94 to 96 °C'),
  ('N#Cc1cc(Cn2cncn2)cc(-c2ccc(OS(N)(=O)=O)cc2)c1', 'melting point', '166 to 167 °C');

For the next question, use this molecule.
Lookup: Tell me the measured melting point of O=C(O)CCC1C2CC3CC(C2)CC1C3 (stereo not drawn) , please.
Found: 116 °C

====

Listed here are molecules together with their documented melting point.

Lookup: Would you kindly share the measured melting point for `O=C1c2ccccc2COc2ccc(CCOC(c3ccccc3)(c3ccccc3)c3ccccc3)cc21` ?
Found: 132 to 134 °C
